Recorded EC50, one value per entry.
# Test system: Cdk1 phosphorylated on tyrosine 15
# assay_summary: High-content imaging of pCdk1 Y15 by immunofluorescence in ACHN cells
# Assay type: cell-based
# experimental_conditions: Homo sapiens, high-content imaging (IF), 4 h, 7 to 5000 nM, read-out: CDK1 Tyr15 Phosphorylation EC50 (IC50)

COc1nc(Nc2cnn(C3CCN(C)CC3)c2)ncc1C(=O)Nc1c(Br)cccc1Br | 100 to 500 nM
CCOc1nc(Nc2cnn([C@H](C)CN(C)C)c2)ncc1C(=O)Nc1c(Cl)cccc1Br | > 1000 nM
COc1nc(Nc2ccc(C3CCN(C)CC3)c(C)c2)ncc1C(=O)Nc1c(Cl)ccc(O)c1Cl | ≤ 100 nM

// fetch EC50 given entry COc1nc(Nc2ccc(C3CCN(C)CC3)c(C)c2)ncc1C(=O)Nc1c(C)cccc1Cl
100 to 500 nM

// fetch EC50 given entry COc1nc(Nc2ccc([C@H]3CCCN(C)C3)c(C)c2)ncc1C(=O)Nc1c(Cl)cccc1Br
100 to 500 nM

// fetch EC50 given entry COc1nc(Nc2ccc(OCCN(C)C)c(C)c2)ncc1C(=O)Nc1c(Cl)ccc(O)c1C
100 to 500 nM

// fetch EC50 given entry COc1nc(Nc2ccc(C3CCN(C)CC3)c(C)c2)ncc1C(=O)Nc1ccccc1
> 1000 nM

// fetch EC50 given entry CN1CCN(c2ccc(Nc3ncc(C(=O)Nc4c(Cl)cccc4Cl)c(OCCO)n3)cc2)CC1
> 1000 nM

// fetch EC50 given entry COc1nc(Nc2ccc(N3CCN(C)CC3)c(C)c2)ncc1C(=O)Nc1c(Cl)cccc1Cl
100 to 500 nM
